# Assay system: recombinant GST-tagged L-gulono-1,4-lactone dehydrogenase of Mycobacterium tuberculosis (Mycobacterium tuberculosis)
# Test context: substrate 50 mM
Below, each entry is listed with its recorded Enzyme specific activity.
Attribute measured: Enzyme specific activity (mU/mg ofprotein)

1) O=C[C@H](O)[C@H]1OC(=O)[C@@H](O)[C@H]1O 0
2) O=C[C@H](O)[C@@H](O)[C@H](O)CO 0
3) O=C1O[C@H]([C@@H](O)CO)[C@H](O)[C@@H]1O 66.7
4) O=C[C@H](O)[C@@H](O)[C@H](O)[C@H](O)C(=O)O 0
5) O=C1O[C@H]([C@@H](O)CO)[C@@H](O)[C@@H]1O 0
6) O=C[C@@H](O)[C@H](O)[C@H](O)CO 0

----------
# Assay system: recombinant GST-tagged L-gulono-1,4-lactone dehydrogenase of Mycobacterium tuberculosis (Mycobacterium tuberculosis, UniProt P9WIT3)
# Sequence (P9WIT3 whole entry): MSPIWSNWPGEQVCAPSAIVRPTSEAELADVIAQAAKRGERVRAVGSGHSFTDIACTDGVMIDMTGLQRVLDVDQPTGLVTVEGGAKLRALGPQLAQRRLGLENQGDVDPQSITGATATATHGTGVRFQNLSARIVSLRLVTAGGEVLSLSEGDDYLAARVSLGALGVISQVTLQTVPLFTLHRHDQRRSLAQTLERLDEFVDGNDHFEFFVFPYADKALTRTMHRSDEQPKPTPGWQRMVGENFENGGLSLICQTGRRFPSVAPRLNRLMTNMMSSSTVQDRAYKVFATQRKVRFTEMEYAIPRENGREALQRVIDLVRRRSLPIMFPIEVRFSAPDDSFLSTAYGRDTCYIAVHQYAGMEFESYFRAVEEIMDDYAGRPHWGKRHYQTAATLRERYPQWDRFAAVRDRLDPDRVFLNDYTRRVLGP
# Test context: effector 1 mM

Compound	Relative activity
[Cl-].[Cl-].[Zn+2]	0 % of control
[Cl][Cu][Cl]	0 % of control
[Cl-].[Cl-].[Mg+2]	98 % of control
[Cl][Mn][Cl]	79 % of control
[Ca+2].[Cl-].[Cl-]	91 % of control
CCN1C(=O)C=CC1=O [N-ethylmaleimide]	0 % of control

----------
# Assay system: recombinant GST-tagged L-gulono-1,4-lactone dehydrogenase of Mycobacterium tuberculosis (Mycobacterium tuberculosis, UniProt P9WIT3)
# Test context: effectors; EDTA 1 mM

Compound	effect on the enzyme activity (in words)
[Cl-].[Cl-].[Zn+2]	Inhibition
CCN1C(=O)C=CC1=O [N-ethylmaleimide]	Inhibition
[Cl][Cu][Cl]	Inhibition

Cited source: patent EP1710301A1
